Let's look at some compounds and their measured Kd.
TARGET_ENTITY: Serine/threonine-protein kinase mTOR (Homo sapiens)
TEST_METHOD_NOTES: binders of mTOR FRB domain, biophysical, NMR (AID 1648)
RUN_CONDITIONS: NMR binding to FRB domain, chemical shift
Activity calls are given as the source filed them. The rule behind the calls is not given here.

- COMPOUND: "NC(=O)CN1CC(c2ccccc2)CC1=O (centres undefined)"
  TARGET_ENTITY: "Serine/threonine-protein kinase mTOR (Homo sapiens)"
  READING: "> 4 mM (inactive)"
- COMPOUND: "CN1CC(=O)Nc2ccc([N+](=O)[O-])cc2C1=O"
  TARGET_ENTITY: "Serine/threonine-protein kinase mTOR (Homo sapiens)"
  READING: "> 4 mM (inactive)"
- COMPOUND: "CCc1c(C)n([O-])c2c([n+]1=O)CCC2"
  TARGET_ENTITY: "Serine/threonine-protein kinase mTOR (Homo sapiens)"
  READING: "> 4 mM (inactive)"
- COMPOUND: "CCNC(CC(=O)Nc1ccc(O)cc1)C(=O)O (centres undefined)"
  TARGET_ENTITY: "Serine/threonine-protein kinase mTOR (Homo sapiens)"
  READING: "> 4 mM (inactive)"
- COMPOUND: "COc1ccc(N2CC(=O)NC2=O)cc1"
  TARGET_ENTITY: "Serine/threonine-protein kinase mTOR (Homo sapiens)"
  READING: "> 4 mM (inactive)"
- COMPOUND: "O=C(O)CCC1=C2c3ccccc3CCN2C(=O)CC1"
  TARGET_ENTITY: "Serine/threonine-protein kinase mTOR (Homo sapiens)"
  READING: "> 4 mM (inactive)"
- COMPOUND: "O=C1N=c2ccccc2=C1c1[nH]c(=S)[nH]c1O"
  TARGET_ENTITY: "Serine/threonine-protein kinase mTOR (Homo sapiens)"
  READING: "> 4 mM (inactive)"
- COMPOUND: "Nc1ccc(CN2CCS(=O)(=O)CC2)cc1"
  TARGET_ENTITY: "Serine/threonine-protein kinase mTOR (Homo sapiens)"
  READING: "> 4 mM (inactive)"

# Kd lookup, item `O=C(CSc1ncn[nH]1)c1ccc2c(c1)OCCO2`
> 4 mM (inactive)

# Kd lookup, item `COc1ccccc1NC(C)=O`
> 4 mM (inactive)

# Kd lookup, item `Cc1ccc(N2C(=O)CC(=O)NC2=O)cc1`
> 4 mM (inactive)

# Kd lookup, item CC(=O)O[C@H]1CC[C@@]2(C)C(C[C@@H](OC(C)=O)[C@@]3(C)C4=CC(=O)O[C@@H](c5ccoc5)[C@]4(C)CCC23)C1(C)C (some centres undefined)
> 4 mM (inactive)

# Kd lookup, item `C=C(C)[C@H]1CC=C(C(=O)O)CC1`
> 4 mM (inactive)

# Kd lookup, item `OCc1ccccc1CN1CCOCC1`
> 4 mM (inactive)
